# CONDITION DETAILS: in 2-butanone, 318.15 K
METRIC: solubility (mole fraction)

INSERT INTO assay_data (molecule, metric, measured) VALUES
  ('CC1Cc2ccccc2N1NC(=O)c1ccc(Cl)c(S(N)(=O)=O)c1 (stereo unspecified)', 'solubility (mole fraction)', 0.0417);

###

# CONDITION DETAILS: in methanol, 313.15 K
METRIC: solubility (mole fraction)

INSERT INTO results (molecule, measured) VALUES
  ('CC1Cc2ccccc2N1NC(=O)c1ccc(Cl)c(S(N)(=O)=O)c1 (stereo unspecified)', 0.0276);

###

# CONDITION DETAILS: in n-propanol, 278.15 K
METRIC: solubility (mole fraction)

INSERT INTO assay_data (compound, measured) VALUES
  ('CC1Cc2ccccc2N1NC(=O)c1ccc(Cl)c(S(N)(=O)=O)c1 (stereo unspecified)', 0.00285);

###

# CONDITION DETAILS: in isopropanol, 293.15 K
METRIC: solubility (mole fraction)

INSERT INTO measurements (compound, measured) VALUES
  ('CC1Cc2ccccc2N1NC(=O)c1ccc(Cl)c(S(N)(=O)=O)c1 (stereo unspecified)', 0.00386);

###

# CONDITION DETAILS: in acetonitrile, 278.15 K
METRIC: solubility (mole fraction)

INSERT INTO assay_data (compound, metric, measured) VALUES
  ('CC1Cc2ccccc2N1NC(=O)c1ccc(Cl)c(S(N)(=O)=O)c1 (stereo unspecified)', 'solubility (mole fraction)', 0.00184);

###

# CONDITION DETAILS: in cyclohexane, 318.15 K
METRIC: solubility (mole fraction)

INSERT INTO measurements (compound, metric, measured) VALUES
  ('CC1Cc2ccccc2N1NC(=O)c1ccc(Cl)c(S(N)(=O)=O)c1 (stereo unspecified)', 'solubility (mole fraction)', '5.02e-05');

###

# CONDITION DETAILS: in methanol, 298.15 K
METRIC: solubility (mole fraction)

INSERT INTO measurements (compound, metric, measured) VALUES
  ('CC1Cc2ccccc2N1NC(=O)c1ccc(Cl)c(S(N)(=O)=O)c1 (stereo unspecified)', 'solubility (mole fraction)', 0.0147);

###

# CONDITION DETAILS: in ethyl acetate, 288.15 K
METRIC: solubility (mole fraction)

INSERT INTO results (compound, metric, measured) VALUES
  ('CC1Cc2ccccc2N1NC(=O)c1ccc(Cl)c(S(N)(=O)=O)c1 (stereo unspecified)', 'solubility (mole fraction)', 0.00115);

###

# CONDITION DETAILS: in toluene, 278.15 K
METRIC: solubility (mole fraction)

INSERT INTO measurements (compound, measured) VALUES
  ('CC1Cc2ccccc2N1NC(=O)c1ccc(Cl)c(S(N)(=O)=O)c1 (stereo unspecified)', '4.36e-06');

###

# CONDITION DETAILS: in isopropanol, 303.15 K
METRIC: solubility (mole fraction)

INSERT INTO measurements (compound, metric, measured) VALUES
  ('CC1Cc2ccccc2N1NC(=O)c1ccc(Cl)c(S(N)(=O)=O)c1 (stereo unspecified)', 'solubility (mole fraction)', 0.00732);

###

# CONDITION DETAILS: in acetonitrile, 298.15 K
METRIC: solubility (mole fraction)

INSERT INTO measurements (molecule, measured) VALUES
  ('CC1Cc2ccccc2N1NC(=O)c1ccc(Cl)c(S(N)(=O)=O)c1 (stereo unspecified)', 0.00714);

# credit: BigSolDB 2.1
